Value source: patent US7776572B2

Examples of substances with documented Absorbance (550 nm) 6 Times 30 min each 23° C. follow.
Tested on: IgG
Test: Coating durability using water washes, IgG binding by colloidal gold
Conditions: dI H2O wash 6 times, 30 min each, 23° C.
parameter: Absorbance (550 nm) 6 Times 30 min each 23° C.

In [3]: df
Out[3]:
                       substance  data_value
0  PEO(20) SORBITOL MONO-LAURATE        0.10
1           SORBITOL MONO-OLEATE        0.00
2  PEO(20) SORBITOL TRI-STEARATE        0.10
3   PEO(4) SORBITOL MONO-LAURATE        0.10
4         SORBITOL MONO-STEARATE        0.00
5            SORBITOL TRI-OLEATE        0.00
6  PEO(4) SORBITOL MONO-STEARATE        0.10
